The values you see were collected from ChEMBL document CHEMBL3882725.

- target_desc: Mitogen-activated protein kinase 9 (Homo sapiens)
- Sequence (P45984 whole entry, the tested form may be a part): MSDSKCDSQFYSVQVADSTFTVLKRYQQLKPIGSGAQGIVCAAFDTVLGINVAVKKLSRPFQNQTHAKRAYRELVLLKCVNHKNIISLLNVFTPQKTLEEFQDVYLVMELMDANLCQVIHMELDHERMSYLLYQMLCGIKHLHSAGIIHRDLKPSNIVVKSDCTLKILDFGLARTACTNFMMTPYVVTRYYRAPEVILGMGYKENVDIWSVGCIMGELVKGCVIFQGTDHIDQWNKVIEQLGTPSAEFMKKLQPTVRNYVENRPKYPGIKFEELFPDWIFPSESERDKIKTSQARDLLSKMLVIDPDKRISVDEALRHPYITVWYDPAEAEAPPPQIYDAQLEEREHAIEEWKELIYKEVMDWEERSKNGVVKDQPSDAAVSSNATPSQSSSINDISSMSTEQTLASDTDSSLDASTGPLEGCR
- test_protocol: Inhibition of His6-tagged JNK2 (unknown origin) assessed as reduction in c-Jun phosphorylation using GST-c-Jun (1 to 79 residues) and [gamma32P]ATP incubated for 1 hr by scintillation counting assay
measurement_label: IC50

compound_structure_string	IC50
CC(C)CC(=O)Nc1cccc(-c2n[nH]c3ccc(-c4nc[nH]n4)cc23)c1	0.5 to 10 µM

Fill in the blank: the reported IC50 of O=C(Nc1cccc(-c2n[nH]c3ccc(-c4nc[nH]n4)cc23)c1)[C@H](O)c1ccccc1 is ____.
0.5 to 10 µM

Fill in the blank: the reported IC50 of NC(=O)c1ccc2[nH]nc(-c3ccc(F)cc3)c2c1 is ____.
1 to 10 µM

Fill in the blank: the reported IC50 of CC(C)CC(=O)Nc1cccc(-c2n[nH]c3ccc(-c4n[nH]c(CN(C)C)n4)cc23)c1 is ____.
0.5 to 10 µM

Fill in the blank: the reported IC50 of Nc1ccc(C(=O)Nc2ccc3[nH]nc(-c4ccccc4)c3c2)cc1 is ____.
1 to 10 µM

Fill in the blank: the reported IC50 of NC(=O)c1ccc2[nH]nc(-c3cccc(NC(=O)Cc4ccc(F)c(F)c4)c3)c2c1 is ____.
1 to 10 µM

Fill in the blank: the reported IC50 of CC(C)(C)OC(=O)NNC(=O)c1ccc2[nH]nc(-c3ccc(F)cc3)c2c1 is ____.
1 to 10 µM
